Data credit: patent US20220396632A1

target.or.test.system: T1, Biotin Y46,48,51(SO3) PSGL-1(42-62) peptide (human, sulfotyrosine at Y46, Y48 and Y51; C-terminal Lys-biotin)
T1 construct: also called fully sulfated N-terminal PSGL-1 peptide
T1 peptide: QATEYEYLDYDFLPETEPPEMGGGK
test.description: ELISA, immobilized biotin peptide
quantity: A450nm, 20 nM mAb
Number first, unit second.

Sample records with A450nm, 20 nM mAb:
# binder, quantity, value
rows = [
    ("03B04 (antibody, IgG4, V domains shown) VH: EVKLLESGGGLVKPGGSLRLSCAASGFAFSRYTMNWVRQAPGKGLEWVSSISSSSSYIYYADSVKGRFTISRDNAKNSLVLQMNSLRPEDTAVYYCARGGIAANDYWGQGTLVTVSS VL: EIVMTQTPLSLPVTLGQPASISCRSSRNLVHYDGNTYLSWFHQRPGQPPRRLIYKISNRESGVPDRFSGSGSGTDFTLKISRVEAEDVGVYYCLQHTHWPWTFGPGTKVEIK", "A450nm, 20 nM mAb", "2.5 A450nm"),
    ("05A11 (antibody, IgG4, V domains shown) VH: EVKLLESGGGVVQPGRSLRLSCAASGFSFSAYGMHWVRQAPGKGLEWVSSISGSGDGTYYADSVKGRFTISRDNSKNTLYLQMNSLRAEDAAVYYCAKSVKGRGYFFDYWGQGTLVTVSS VL: DIVLTQSPSSLSASVGDRVTITCRASQSISSYLNWYQQKPGKAPKLLIYAASSLQSGVPSRFSGSGSGTDFTLSISNLQPEDFATYYCQQAYKFPRSFGGGTKVEFK", "A450nm, 20 nM mAb", "2.52 A450nm"),
]

Here's the next entry for you.
Enquiry: I am curious: what A450nm, 20 nM mAb value has been reported for 03D01 (antibody, IgG4, V domains shown) VH: EVQLVQSGGGLVQPGGSLRLSCAATGFTVSRNYMTWVREAPGKGLEWVAGIYKSGTTSYIESVKGRFTISRDNSKNTLYLEMSRLRAEDTAVYYCAKSTSTWGQGTQVTVSS VL: DVVMTQSPVSLPVTLGQPASISCRSSRNLLYSNGNTYLNWFHQRPGQSPRRLIYKVSNQDSGVPDRFSGSGSGTDFTLKISRVEAEDVGVYYCMQGTHWPTTFGQGTRLEIK ?
Return: 2.67 A450nm
